- TARGET OF ASSAY: Proteinase K (Parengyodontium album, UniProt P06873)
- Construct: purchased Roche
- Sequence (P06873 106-384): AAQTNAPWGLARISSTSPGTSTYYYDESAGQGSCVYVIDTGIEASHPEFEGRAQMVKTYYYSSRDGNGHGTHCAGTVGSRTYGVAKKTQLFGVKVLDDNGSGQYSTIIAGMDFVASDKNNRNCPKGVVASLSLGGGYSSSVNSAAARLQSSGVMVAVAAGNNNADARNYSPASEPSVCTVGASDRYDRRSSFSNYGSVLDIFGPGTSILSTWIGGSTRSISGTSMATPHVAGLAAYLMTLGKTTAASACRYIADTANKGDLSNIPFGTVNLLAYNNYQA
- PROTOCOL: Proteinase K inhibition, fluorogenic substrate assay (Suc-Ala-Ala-Pro-Phe-AMC)
- Assay type: biochemical, Tritirachium album
- CONDITION SUMMARY: Proteinase K; inhibitor concentration 1000 nM; 40 min pre-incubation
MEASURE: Mean (RFU/s)

compound="CC=C1NC(=O)[C@@H](NC(=O)[C@@H](NC(=O)[C@@H]2CCCN2C(=O)CCC)[C@@H](C)O)[C@@H](C)OC(=O)[C@H](C(C)C)NC(=O)[C@H](Cc2ccc(O)cc2)N(C)C(=O)[C@H](Cc2ccccc2)N2C(=O)[C@H](CC[C@H]2O)NC1=O [Rivulariapeptolide 988, rivulariapeptolide 988]" measure="Mean (RFU/s)" test_value=0.07367
compound="CCCC(=O)N1CCCC1C(=O)NC(C(=O)NC1C(=O)NC(CC(C)C)C(=O)NC2CCC(O)N(C2=O)C(Cc2ccccc2)C(=O)N(C)C(Cc2ccc(O)cc2)C(=O)NC(C(C)C)C(=O)OC1C)C(C)OC(=O)C1CCCN1C(=O)CCC (stereo not drawn) [Rivulariapeptolide 1185, rivulariapeptolide 1185]" measure="Mean (RFU/s)" test_value=0.13
compound="C/C=C1\\NC(=O)[C@@H](NC(=O)[C@@H](NC(=O)[C@H](C)NC(=O)CCC)[C@@H](C)O)[C@@H](C)OC(=O)[C@H](C(C)C)NC(=O)[C@H](Cc2ccc(O)c(Br)c2)N(C)C(=O)[C@H](Cc2ccccc2)N2C(=O)[C@H](CC[C@H]2O)NC1=O [Molassamide B, molassamide B]" measure="Mean (RFU/s)" test_value=0

---

- TARGET OF ASSAY: Chymotrypsin (Bos taurus)
- Construct: purchased Sigma-Aldrich
- PROTOCOL: Chymotrypsin inhibition, fluorogenic substrate assay (Suc-Ala-Ala-Pro-Phe-AMC)
- Format: biochemical
- CONDITION SUMMARY: Chymotrypsin; inhibitor concentration 0.0508053 nM; 40 min pre-incubation
In this section we review reported Mean (RFU/s) values for a set of compounds.
MEASURE: Mean (RFU/s)

compound="CCCC(=O)N1CCCC1C(=O)NC(C(=O)NC1C(=O)NC(CC(C)C)C(=O)NC2CCC(O)N(C2=O)C(Cc2ccccc2)C(=O)N(C)C(Cc2ccc(O)cc2)C(=O)NC(C(C)C)C(=O)OC1C)C(C)OC(=O)C1CCCN1C(=O)CCC (stereo not drawn) [Rivulariapeptolide 1185, rivulariapeptolide 1185]" test_value=5.046
compound="CC=C1NC(=O)[C@@H](NC(=O)[C@@H](NC(=O)[C@@H]2CCCN2C(=O)CCC)[C@@H](C)OC(=O)C2CCCN2C(=O)CCC)[C@@H](C)OC(=O)[C@H](C(C)C)NC(=O)[C@H](Cc2ccc(O)cc2)N(C)C(=O)[C@H](Cc2ccccc2)N2C(=O)[C@H](CC[C@H]2O)NC1=O (stereo partly drawn) [Rivulariapeptolide 1155, rivulariapeptolide 1155]" test_value=5.293
compound="C/C=C1\\NC(=O)[C@@H](NC(=O)[C@@H](NC(=O)[C@H](C)NC(=O)CCC)[C@@H](C)O)[C@@H](C)OC(=O)[C@H](C(C)C)NC(=O)[C@H](Cc2ccc(O)cc2)N(C)C(=O)[C@H](Cc2ccccc2)N2C(=O)[C@H](CC[C@H]2O)NC1=O [Molassamide, molassamide]" test_value=5.082
compound="CC=C1NC(=O)[C@@H](NC(=O)[C@@H](NC(=O)[C@@H]2CCCN2C(=O)CCC)[C@@H](C)O)[C@@H](C)OC(=O)[C@H](C(C)C)NC(=O)[C@H](Cc2ccc(O)cc2)N(C)C(=O)[C@H](Cc2ccccc2)N2C(=O)[C@H](CC[C@H]2O)NC1=O [Rivulariapeptolide 988, rivulariapeptolide 988]" test_value=4.956
compound="CC=C1NC(=O)[C@@H](NC(=O)[C@@H](NC(=O)[C@@H]2CCCN2C(=O)CCC)[C@@H](C)OC(=O)C2CCCN2C(=O)CCC)[C@@H](C)OC(=O)[C@H](C(C)C)NC(=O)[C@H](Cc2ccc(O)cc2)N(C)C(=O)[C@H](CC(C)C)N2C(=O)[C@H](CC[C@H]2O)NC1=O (stereo partly drawn) [Rivulariapeptolide 1121, rivulariapeptolide 1121]" test_value=4.522
compound="C/C=C1\\NC(=O)[C@@H](NC(=O)[C@@H](NC(=O)[C@H](C)NC(=O)CCC)[C@@H](C)O)[C@@H](C)OC(=O)[C@H](C(C)C)NC(=O)[C@H](Cc2ccc(O)c(Br)c2)N(C)C(=O)[C@H](Cc2ccccc2)N2C(=O)[C@H](CC[C@H]2O)NC1=O [Molassamide B, molassamide B]" test_value=5.208

---

- TARGET OF ASSAY: Elastase (Sus scrofa, UniProt P00772)
- Construct: purchased Sigma-Aldrich
- Sequence (P00772 27-266): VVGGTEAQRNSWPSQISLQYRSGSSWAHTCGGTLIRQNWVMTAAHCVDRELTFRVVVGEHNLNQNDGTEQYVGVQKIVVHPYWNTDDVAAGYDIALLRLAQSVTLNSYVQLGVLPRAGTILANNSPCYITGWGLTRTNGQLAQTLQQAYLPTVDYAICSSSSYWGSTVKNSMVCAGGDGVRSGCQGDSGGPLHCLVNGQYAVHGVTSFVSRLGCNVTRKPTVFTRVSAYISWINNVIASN
- PROTOCOL: Elastase inhibition, fluorogenic substrate assay (MeOSuc-Ala-Ala-Pro-Val-AMC)
- Format: biochemical, Sus domesticus
- CONDITION SUMMARY: Elastase; inhibitor concentration 1.37174 nM; 40 min pre-incubation
Label satisfied when Mean (RFU/s) is at or above 0.8 RFU/s; anything below gets not satisfied.

compound="CC=C1NC(=O)[C@@H](NC(=O)[C@@H](NC(=O)[C@@H]2CCCN2C(=O)CCC)[C@@H](C)OC(=O)C2CCCN2C(=O)CCC)[C@@H](C)OC(=O)[C@H](C(C)C)NC(=O)[C@H](Cc2ccc(O)cc2)N(C)C(=O)[C@H](Cc2ccccc2)N2C(=O)[C@H](CC[C@H]2O)NC1=O (stereo partly drawn) [Rivulariapeptolide 1155, rivulariapeptolide 1155]" label="not satisfied"
compound="CC=C1NC(=O)[C@@H](NC(=O)[C@@H](NC(=O)[C@@H]2CCCN2C(=O)CCC)[C@@H](C)O)[C@@H](C)OC(=O)[C@H](C(C)C)NC(=O)[C@H](Cc2ccc(O)cc2)N(C)C(=O)[C@H](Cc2ccccc2)N2C(=O)[C@H](CC[C@H]2O)NC1=O [Rivulariapeptolide 988, rivulariapeptolide 988]" label="not satisfied"
compound="CCCC(=O)N1CCCC1C(=O)NC(C(=O)NC1C(=O)NC(CC(C)C)C(=O)NC2CCC(O)N(C2=O)C(Cc2ccccc2)C(=O)N(C)C(Cc2ccc(O)cc2)C(=O)NC(C(C)C)C(=O)OC1C)C(C)OC(=O)C1CCCN1C(=O)CCC (stereo not drawn) [Rivulariapeptolide 1185, rivulariapeptolide 1185]" label=satisfied

---

- TARGET OF ASSAY: Proteinase K (Parengyodontium album, UniProt P06873)
- Construct: purchased Roche
- PROTOCOL: Proteinase K inhibition, fluorogenic substrate assay (Suc-Ala-Ala-Pro-Phe-AMC)
- Type: biochemical, Tritirachium album
- CONDITION SUMMARY: Proteinase K; inhibitor concentration 0.152416 nM; 40 min pre-incubation
This listing pairs compounds with measured Mean (RFU/s).
MEASURE: Mean (RFU/s)

compound="CC=C1NC(=O)[C@@H](NC(=O)[C@@H](NC(=O)[C@@H]2CCCN2C(=O)CCC)[C@@H](C)OC(=O)C2CCCN2C(=O)CCC)[C@@H](C)OC(=O)[C@H](C(C)C)NC(=O)[C@H](Cc2ccc(O)cc2)N(C)C(=O)[C@H](Cc2ccccc2)N2C(=O)[C@H](CC[C@H]2O)NC1=O (stereo partly shown) [Rivulariapeptolide 1155, rivulariapeptolide 1155]" target_of_assay="Proteinase K (Parengyodontium album, UniProt P06873)" measure="Mean (RFU/s)" test_value="6.245 RFU/s"
compound="C/C=C1\\NC(=O)[C@@H](NC(=O)[C@@H](NC(=O)[C@H](C)NC(=O)CCC)[C@@H](C)O)[C@@H](C)OC(=O)[C@H](C(C)C)NC(=O)[C@H](Cc2ccc(O)c(Br)c2)N(C)C(=O)[C@H](Cc2ccccc2)N2C(=O)[C@H](CC[C@H]2O)NC1=O [Molassamide B, molassamide B]" target_of_assay="Proteinase K (Parengyodontium album, UniProt P06873)" measure="Mean (RFU/s)" test_value="6.284 RFU/s"
compound="CCCC(=O)N1CCCC1C(=O)NC(C(=O)NC1C(=O)NC(CC(C)C)C(=O)NC2CCC(O)N(C2=O)C(Cc2ccccc2)C(=O)N(C)C(Cc2ccc(O)cc2)C(=O)NC(C(C)C)C(=O)OC1C)C(C)OC(=O)C1CCCN1C(=O)CCC (stereo not shown) [Rivulariapeptolide 1185, rivulariapeptolide 1185]" target_of_assay="Proteinase K (Parengyodontium album, UniProt P06873)" measure="Mean (RFU/s)" test_value="6.488 RFU/s"
compound="CC=C1NC(=O)[C@@H](NC(=O)[C@@H](NC(=O)[C@@H]2CCCN2C(=O)CCC)[C@@H](C)OC(=O)C2CCCN2C(=O)CCC)[C@@H](C)OC(=O)[C@H](C(C)C)NC(=O)[C@H](Cc2ccc(O)cc2)N(C)C(=O)[C@H](CC(C)C)N2C(=O)[C@H](CC[C@H]2O)NC1=O (stereo partly shown) [Rivulariapeptolide 1121, rivulariapeptolide 1121]" target_of_assay="Proteinase K (Parengyodontium album, UniProt P06873)" measure="Mean (RFU/s)" test_value="6.281 RFU/s"

All figures here come from paper PMC9358669.
